- Assay comment: recombinant barcode read abundance after kanamycin selection (control-corrected) (log10(CPM+1)); higher = more efficient recombination; sequences stand for … in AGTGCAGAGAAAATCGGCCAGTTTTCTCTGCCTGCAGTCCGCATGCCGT…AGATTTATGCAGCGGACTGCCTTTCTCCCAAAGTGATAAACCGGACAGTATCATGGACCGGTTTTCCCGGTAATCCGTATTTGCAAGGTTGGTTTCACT; site = the 11-nt target;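 further: IS621 recombinase and bridge RNA in Escherichia coli cells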
Hi, to clarify the labels: label 1 covers recombinant barcode read abundance (log10) from 0.2 upward, label 0 covers anything below 0.2.

Prompt line: For this sequence, is measured recombinant barcode read abundance (log10) 0.2 or higher? AGGTCACCTTGGGTTCTAACCTGTTGCCT (site AGGTCACCTAA)
Response line: label 0

Next:
Prompt line: For this sequence, is measured recombinant barcode read abundance (log10) 0.2 or higher? CTCGGGCCTTGGGTTCTAACCTGTTGCCT (site GTCGGGCCTAG)
Response line: label 0

Prompt line: For this sequence, is measured recombinant barcode read abundance (log10) 0.2 or higher? GCTCGTACTTGGGTTCTAACCTGTTGCAT (site GCTCGTACTAT)
Response line: label 1

Prompt line: For this sequence, is measured recombinant barcode read abundance (log10) 0.2 or higher? CCAGAAGCTTGGGTTCTAACCTGTTGCCT (site CCAGTAGCTAG)
Response line: label 0

Prompt line: For this sequence, is measured recombinant barcode read abundance (log10) 0.2 or higher? CGGAATGCTTGGGTTCTAACCTGTTGCCT (site CGGAATGCTAG)
Response line: label 1

Prompt line: For this sequence, is measured recombinant barcode read abundance (log10) 0.2 or higher? CGTGCGCCTTGGGTTCTAACCTGTTGCCT (site CGTGCGCCTAG)
Response line: label 0

Prompt line: For this sequence, is measured recombinant barcode read abundance (log10) 0.2 or higher? GGTCGCGCTTGGGTTCTAACCTGTTGCCT (site GGTCGTGCTAG)
Response line: label 0

These entries and their values trace back to the supplement of paper PMC11208160.
